Every entry's value here was drawn from patent US20170210813A1.

// reported kon per item
Test System: T1, hPDGFRb.mmh (human, UniProt P09619 33-531)
T1 construct: Soluble monomeric construct; also called soluble human PDGFR-beta.mmh
T1 sequence (P09619 other isoform, or with tags, fused parts or gaps): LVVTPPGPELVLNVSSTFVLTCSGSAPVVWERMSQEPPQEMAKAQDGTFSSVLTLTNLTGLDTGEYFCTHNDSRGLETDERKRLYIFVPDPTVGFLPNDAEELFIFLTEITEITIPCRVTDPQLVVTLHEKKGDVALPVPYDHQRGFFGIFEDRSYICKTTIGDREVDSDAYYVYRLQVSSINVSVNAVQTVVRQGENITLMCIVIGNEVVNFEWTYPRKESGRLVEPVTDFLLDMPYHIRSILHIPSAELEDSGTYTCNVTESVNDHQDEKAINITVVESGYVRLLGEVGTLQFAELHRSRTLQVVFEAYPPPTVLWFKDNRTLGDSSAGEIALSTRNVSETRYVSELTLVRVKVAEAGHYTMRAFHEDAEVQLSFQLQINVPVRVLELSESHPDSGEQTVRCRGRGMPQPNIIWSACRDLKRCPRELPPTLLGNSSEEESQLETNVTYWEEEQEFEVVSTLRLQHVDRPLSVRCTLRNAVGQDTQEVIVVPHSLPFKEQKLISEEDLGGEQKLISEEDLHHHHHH
Assay Notes: SPR, mAb captured, 25 C
Procedure: Antibodies, expressed as either mouse Fc (prefix H1M; H2M) or human Fc (prefix H4H), were captured on their respective anti-Fc sensor surfaces (Mab capture format). […] Kinetic association (kₐ) and dissociation (kd) rate constants were determined by processing and fitting the data to a 1:1 binding model using Scrubber 2.0 curve fitting software.

{"columns": ["Binder", "Measurement Units", "kon"],
 "data": [
  ["H1M3361N (antibody, mouse IgG1, V domains shown, mouse IgG1 Fc (H1M prefix)) VH: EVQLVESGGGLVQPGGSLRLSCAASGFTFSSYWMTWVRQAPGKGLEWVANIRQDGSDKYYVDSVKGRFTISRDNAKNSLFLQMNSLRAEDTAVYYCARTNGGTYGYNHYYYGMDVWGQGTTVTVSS VL: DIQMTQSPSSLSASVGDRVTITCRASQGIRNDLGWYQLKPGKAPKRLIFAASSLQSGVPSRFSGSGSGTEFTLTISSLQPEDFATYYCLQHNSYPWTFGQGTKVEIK", "M⁻¹ s⁻¹", 173000],
  ["H4H3098S (antibody, human IgG4, V domains shown, human IgG4 Fc (H4H prefix)) VH: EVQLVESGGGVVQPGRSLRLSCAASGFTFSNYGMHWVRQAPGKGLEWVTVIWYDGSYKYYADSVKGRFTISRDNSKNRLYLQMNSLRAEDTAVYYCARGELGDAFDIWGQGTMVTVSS VL: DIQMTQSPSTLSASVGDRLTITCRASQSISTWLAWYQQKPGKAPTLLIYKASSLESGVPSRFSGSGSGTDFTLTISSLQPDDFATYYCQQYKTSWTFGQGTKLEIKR", "M⁻¹ s⁻¹", 386000],
  ["H4H3095S (antibody, human IgG4, V domains shown, human IgG4 Fc (H4H prefix)) VH: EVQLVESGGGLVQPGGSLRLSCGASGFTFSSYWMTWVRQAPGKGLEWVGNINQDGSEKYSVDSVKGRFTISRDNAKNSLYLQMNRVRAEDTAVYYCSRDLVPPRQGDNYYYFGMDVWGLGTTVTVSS VL: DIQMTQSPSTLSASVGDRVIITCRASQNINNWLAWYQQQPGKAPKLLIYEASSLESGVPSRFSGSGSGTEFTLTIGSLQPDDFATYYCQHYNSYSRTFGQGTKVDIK", "M⁻¹ s⁻¹", 285000]
]}
